meta.source: paper PMC12336229

Measured remaining at 72 h, 0.2 mM, listed per entry for reference.
test: Plasma stability (UPLC-MS); format: in vitro ADME, human; settings: 72 h, human EDTA plasma from four healthy volunteers, 37°C, gentle shaking, UPLC-MS (SIR), peak area vs time 0, read-out: Amount of detectable compound after incubation with human plasma
Square brackets hold non-standard residues; d marks the D form. Peptide text beside a SMILES is read from it.
Measured Quantity: remaining at 72 h, 0.2 mM

- CC(C)C[C@@H](NC(=O)[C@@H](Cc1ccccc1)NC(=O)[C@@H](CO)NC(=O)[C@@H](CCCCN)NC(=O)[C@H](N)CCCCN)C(=O)N[C@H](CO)C(=O)N1CCC[C@@H]1C(=O)N[C@H](CCCNC(=N)N)C(N)=O [PMT-8a] (H-[dK][dK][dS][dF][dL][dS][dP][dR]-NH2): > 90%
- CC[C@@H](C)[C@@H](NC(=O)[C@@H](CC(C)C)NC(=O)[C@@H](C)NC(=O)[C@H](NC(=O)[C@@H](CCCNC(=N)N)NC(=O)[C@H]1CCCN1C(=O)[C@@H](CO)NC(=O)[C@H](N)CC(C)C)[C@H](C)O)C(N)=O [PMT-8b] (H-[dL][dS][dP][dR][dT][dA][dL][dI]-NH2): > 85%
- CC[C@@H](C)[C@@H](NC(=O)[C@@H](CC(C)C)NC(=O)[C@@H](C)NC(=O)[C@H](NC(=O)[C@@H](CCCNC(=N)N)NC(=O)[C@H]1CCCN1C(=O)[C@@H](CO)NC(=O)[C@@H](CC(C)C)NC(=O)[C@@H](Cc1ccccc1)NC(=O)[C@@H](CO)NC(=O)[C@@H](CCCCN)NC(=O)[C@H](N)CCCCN)[C@H](C)O)C(=O)N[C@H](CC(N)=O)C(=O)N[C@H](Cc1ccccc1)C(=O)N[C@H](CC(C)C)C(=O)N[C@@H](C(N)=O)C(C)C [PMT]: ~25%

----------
assay: Plasma stability (UPLC-MS); format: in vitro ADME, human; settings: 1.5 h, human EDTA plasma from four healthy volunteers, 37°C, gentle shaking, UPLC-MS (SIR), peak area vs time 0, read-out: Decrease of amount of compound after incubation with human plasma
Measured Quantity: metabolised at 1.5 h, 0.2 mM

* CC[C@H](C)[C@H](NC(=O)[C@H](CC(C)C)NC(=O)[C@H](C)NC(=O)[C@@H](NC(=O)[C@H](CCCNC(=N)N)NC(=O)[C@@H]1CCCN1C(=O)[C@H](CO)NC(=O)[C@H](CC(C)C)NC(=O)[C@H](Cc1ccccc1)NC(=O)[C@H](CO)NC(=O)[C@H](CCCCN)NC(=O)[C@@H](N)CCCCN)[C@@H](C)O)C(=O)N[C@@H](CC(N)=O)C(=O)N[C@@H](Cc1ccccc1)C(=O)N[C@@H](CC(C)C)C(=O)N[C@H](C(N)=O)C(C)C [β32_33 peptide] | 90%
